Measured Activity of Kv1.2 with peptide, expressed as a percentage of the reference compound values are reported for all entries that follow.
# Assayed System: Kv1.2 (Homo sapiens)
# Construct: host or cells: HEK293 or CHO
# Sequence (P16389 whole entry): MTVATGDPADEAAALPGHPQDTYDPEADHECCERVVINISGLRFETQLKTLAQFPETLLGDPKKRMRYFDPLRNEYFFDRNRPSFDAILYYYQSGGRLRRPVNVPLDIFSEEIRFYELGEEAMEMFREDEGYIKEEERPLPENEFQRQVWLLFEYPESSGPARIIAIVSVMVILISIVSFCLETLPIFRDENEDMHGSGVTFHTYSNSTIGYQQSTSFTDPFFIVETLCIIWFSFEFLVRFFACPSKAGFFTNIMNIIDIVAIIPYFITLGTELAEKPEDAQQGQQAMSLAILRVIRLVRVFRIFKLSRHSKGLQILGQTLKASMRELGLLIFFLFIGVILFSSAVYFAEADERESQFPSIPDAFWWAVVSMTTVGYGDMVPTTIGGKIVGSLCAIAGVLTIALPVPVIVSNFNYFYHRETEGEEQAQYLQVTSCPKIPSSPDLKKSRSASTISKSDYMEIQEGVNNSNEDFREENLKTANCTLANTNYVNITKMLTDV
# Test Summary: cell-based
# Type: cell-based
# Experimental Conditions: peptide at 0.2 μM; 100% = no change, <100% = inhibition
Numbers only here, please. The scale is %.

Qu. Find Activity of Kv1.2 with peptide, expressed as a percentage of the reference compound (Kv1.2 (Homo sapiens)) for the entry 25 (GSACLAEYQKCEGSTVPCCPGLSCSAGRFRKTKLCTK) [compound 25]
Ans. 72

###

# Assayed System: NR2A (Homo sapiens, UniProt Q12879)
# Construct: host or cells: HEK293 or CHO
# Sequence (Q12879 23-1464, other chains not shown): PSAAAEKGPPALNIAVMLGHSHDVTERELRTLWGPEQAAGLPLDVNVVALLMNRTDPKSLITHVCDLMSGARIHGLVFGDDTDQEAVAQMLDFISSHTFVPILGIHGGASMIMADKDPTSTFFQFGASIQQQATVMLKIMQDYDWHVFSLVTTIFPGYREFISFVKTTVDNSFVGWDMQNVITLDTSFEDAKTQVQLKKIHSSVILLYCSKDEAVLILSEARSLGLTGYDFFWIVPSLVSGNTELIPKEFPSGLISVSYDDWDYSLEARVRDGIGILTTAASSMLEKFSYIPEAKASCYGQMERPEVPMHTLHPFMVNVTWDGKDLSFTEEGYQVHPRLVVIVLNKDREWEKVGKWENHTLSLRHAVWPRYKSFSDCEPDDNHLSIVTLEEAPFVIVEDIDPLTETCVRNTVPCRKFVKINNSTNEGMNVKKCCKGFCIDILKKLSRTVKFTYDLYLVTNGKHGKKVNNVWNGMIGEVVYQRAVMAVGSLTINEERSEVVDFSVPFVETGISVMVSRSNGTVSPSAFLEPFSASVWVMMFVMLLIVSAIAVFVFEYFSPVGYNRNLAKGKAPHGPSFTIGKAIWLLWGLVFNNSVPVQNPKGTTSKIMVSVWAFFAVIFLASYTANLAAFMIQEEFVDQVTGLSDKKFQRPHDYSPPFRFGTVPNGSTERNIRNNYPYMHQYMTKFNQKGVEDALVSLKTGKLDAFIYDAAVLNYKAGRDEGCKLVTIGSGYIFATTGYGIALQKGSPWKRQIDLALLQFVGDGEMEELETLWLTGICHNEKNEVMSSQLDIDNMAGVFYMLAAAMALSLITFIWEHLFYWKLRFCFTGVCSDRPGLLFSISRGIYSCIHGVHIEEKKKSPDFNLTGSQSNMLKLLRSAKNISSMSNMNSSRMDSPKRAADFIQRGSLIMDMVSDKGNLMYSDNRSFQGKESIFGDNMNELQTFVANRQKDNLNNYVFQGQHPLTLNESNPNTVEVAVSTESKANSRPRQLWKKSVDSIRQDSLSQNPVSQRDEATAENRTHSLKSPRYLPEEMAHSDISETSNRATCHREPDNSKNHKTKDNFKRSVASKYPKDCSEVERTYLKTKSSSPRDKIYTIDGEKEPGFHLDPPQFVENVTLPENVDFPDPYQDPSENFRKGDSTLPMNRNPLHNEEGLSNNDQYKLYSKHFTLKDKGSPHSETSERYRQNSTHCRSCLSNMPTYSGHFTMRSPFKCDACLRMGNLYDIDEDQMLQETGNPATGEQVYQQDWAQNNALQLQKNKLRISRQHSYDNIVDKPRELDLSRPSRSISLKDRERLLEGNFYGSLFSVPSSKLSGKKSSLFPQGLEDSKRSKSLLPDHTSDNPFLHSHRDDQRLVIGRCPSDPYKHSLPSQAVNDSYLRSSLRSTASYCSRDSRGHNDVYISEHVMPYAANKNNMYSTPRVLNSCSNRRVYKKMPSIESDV
# Test Summary: Ion channel panel (IonWorks Barracuda): NR2A
# Format: cell-based
# Experimental Conditions: peptide at 20 μM; 100% = no change, <100% = inhibition
Readout Label: Activity of NR2A with peptide (percentage of the reference compound)

Substance: 24 (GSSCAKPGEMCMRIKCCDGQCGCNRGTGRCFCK) [compound 24]
Assayed System: NR2A (Homo sapiens, UniProt Q12879)
Reported Value: 100%
//
Substance: 39 (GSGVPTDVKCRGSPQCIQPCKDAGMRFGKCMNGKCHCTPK) [compound 39]
Assayed System: NR2A (Homo sapiens, UniProt Q12879)
Reported Value: 82%
//
Substance: 14 (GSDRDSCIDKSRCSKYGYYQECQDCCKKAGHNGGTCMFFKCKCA) [compound 14]
Assayed System: NR2A (Homo sapiens, UniProt Q12879)
Reported Value: 95%
//
Substance: 34 (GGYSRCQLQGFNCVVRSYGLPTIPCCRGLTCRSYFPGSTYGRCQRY) [compound 34]
Assayed System: NR2A (Homo sapiens, UniProt Q12879)
Reported Value: 77%

Qu. Give the measured Activity of NR2A with peptide (percentage of the reference compound) of 20 (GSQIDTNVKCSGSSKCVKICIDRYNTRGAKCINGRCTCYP) [compound 20] .
Ans. 104%

###

# Assayed System: TRPV1 (Homo sapiens, UniProt Q8NER1)
# Construct: host or cells: HEK293 or CHO
# Sequence (Q8NER1 whole entry): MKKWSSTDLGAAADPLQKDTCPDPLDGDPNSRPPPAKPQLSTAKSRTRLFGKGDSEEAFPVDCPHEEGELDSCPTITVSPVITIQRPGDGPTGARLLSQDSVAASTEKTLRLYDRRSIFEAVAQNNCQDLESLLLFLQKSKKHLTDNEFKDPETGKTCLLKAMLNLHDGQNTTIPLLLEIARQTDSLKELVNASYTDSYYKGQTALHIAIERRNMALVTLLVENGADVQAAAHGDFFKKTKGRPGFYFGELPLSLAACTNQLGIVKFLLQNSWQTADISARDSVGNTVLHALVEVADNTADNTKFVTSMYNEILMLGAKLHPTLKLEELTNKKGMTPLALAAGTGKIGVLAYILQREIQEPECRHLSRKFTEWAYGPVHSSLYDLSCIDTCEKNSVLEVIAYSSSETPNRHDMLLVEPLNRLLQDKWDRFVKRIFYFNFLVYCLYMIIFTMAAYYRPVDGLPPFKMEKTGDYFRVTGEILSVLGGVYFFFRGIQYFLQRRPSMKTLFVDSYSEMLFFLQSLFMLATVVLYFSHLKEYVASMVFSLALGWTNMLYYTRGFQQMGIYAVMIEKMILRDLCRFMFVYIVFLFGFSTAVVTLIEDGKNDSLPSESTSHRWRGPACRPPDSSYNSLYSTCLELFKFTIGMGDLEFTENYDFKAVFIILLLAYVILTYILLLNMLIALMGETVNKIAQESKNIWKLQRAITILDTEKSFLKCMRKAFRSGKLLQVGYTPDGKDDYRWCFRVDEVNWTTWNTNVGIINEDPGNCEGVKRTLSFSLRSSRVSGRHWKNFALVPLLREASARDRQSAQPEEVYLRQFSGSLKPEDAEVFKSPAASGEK
# Test Summary: Ion channel panel (IonWorks Barracuda): TRPV1
# Type: cell-based
# Experimental Conditions: peptide at 20 μM; 100% = no change, <100% = inhibition
I would appreciate it if you labelled entries Yes when Activity of TRPV1 with peptide (percentage of the reference compound) is 90% or higher, otherwise No.

As a guide, the following entries are already answered.
Substance: 23 (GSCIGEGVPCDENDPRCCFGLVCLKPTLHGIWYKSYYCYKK) [compound 23]
Assigned Category: No
//
Substance: 3 (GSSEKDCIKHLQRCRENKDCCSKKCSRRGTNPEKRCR) [compound 3]
Assigned Category: Yes
//
Substance: 17 (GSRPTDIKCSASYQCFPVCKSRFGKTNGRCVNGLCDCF) [compound 17]
Assigned Category: No
//
Substance: 12 (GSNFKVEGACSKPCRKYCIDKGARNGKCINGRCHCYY) [compound 12]
Assigned Category: No
//
Substance: 32 (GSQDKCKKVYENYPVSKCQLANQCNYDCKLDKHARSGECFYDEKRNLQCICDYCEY) [compound 32]
Assigned Category: No
//
Substance: 15 (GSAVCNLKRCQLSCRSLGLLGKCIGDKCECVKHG) [compound 15]
Assigned Category: Yes
//
Substance: 38 (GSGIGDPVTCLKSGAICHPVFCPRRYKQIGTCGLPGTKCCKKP) [compound 38]
Assigned Category: No

Kindly review the next substance as well.
Qu. Entry 10 (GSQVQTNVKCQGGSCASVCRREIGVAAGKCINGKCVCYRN) [compound 10] : is its Activity of TRPV1 with peptide (percentage of the reference compound) no less than 90%?
Ans. Yes
